// reported Ki for each item listed
biological target: human cathepsin B (Homo sapiens, UniProt P07858); construct: purchased Millipore Sigma or R&D Systems; experiment: Kinetic assay of human cathepsin B inhibition (Z-LR-AMC fluorescence); assay type: biochemical; conditions: initial rates, t = 0–3 min; read-out: Ki (hCatB) from initial rates vi/v0
RESULT_TYPE: Ki (nM)

{"MOLECULE": "CC(C)C[C@H](NC(=O)OCc1ccccc1)C(=O)N[C@@H](CC1CCCCC1)C(=O)N[C@H](C=O)Cc1ccc[nH]c1=O [Compound 3]", "REPORTED_RESULT": 290}
{"MOLECULE": "COc1cccc2[nH]c(C(=O)NC(CC(C)C)C(=O)NC(C=O)Cc3ccc[nH]c3=O)cc12 (centres unmarked) [Compound 6]", "REPORTED_RESULT": 65}
